meta.source: patent US7351399B2

experiment: Oral bioavailability by urinary excretion method (Example M); format: in vivo; details: oral gavage 20 or 40 mg/kg parent equivalents; 24 h urine vs i.v. parent ~10 mg/kg; rat
In this section we review reported % OBAV Prodrug values for a set of compounds.
I only need the number, in %, no unit after it.

Some compounds with known % OBAV Prodrug results, for comparison:
CC(C)Cn1c(-c2ccc(P3(=O)OCCC(c4ccncc4)O3)o2)nc2ccc(Cl)cc21 (stereo not drawn)	11.6
CC(=O)OCC1COP(=O)(c2ccc(-c3nc4ccc(Cl)cc4n3CC(C)C)o2)OC1 (stereo not drawn)	12.5

Now for the compound whose % OBAV Prodrug we want.
Input line: Given CC(C)Cn1c(-c2ccc(P3(=O)OCCC(c4ccccn4)O3)o2)nc2ccc(Cl)cc21 (stereo not drawn) , state its recorded % OBAV Prodrug.
Output line: 8.5
